# protocol: 19F NMR aqueous solubility limit measurement
# Type: physicochemical
# assay_conditions: pH 6.9, aqueous with cosolvent or surfactant or cyclodextrin, kinetic from dmso stock
# Method: ^19F NMR Aqueous Solubility Limit Measurements: Compound was dissolved in DMSO and then added to 10 mM pH=6.9 phosphate buffer/D2O (9:1 v/v) to make 5% DMSO stock in 500 μL phosphate buffer/D2O at concentration of 10/50/100/150/200/250 μM. […]
Hi there, I'd appreciate the recorded solubility for every entry that follows.

Documented solubility of Fc1c(F)c(SCCCC(F)(F)C(F)(F)F)c(F)c(F)c1SCCCC(F)(F)C(F)(F)F [DD-1] : ≤ 200 µM

Documented solubility of Fc1c(F)c(-c2c(F)c(F)c(SCCCC(F)(F)C(F)(F)F)c(F)c2F)c(F)c(F)c1SCCCC(F)(F)C(F)(F)F [DD-3] : ≤ 200 µM
